target: human JAK3 catalytic kinase (JH1) domain (Homo sapiens (Human), UniProt P52333); experiment: ADP-Glo Kinase Assay, recombinant JAK3 catalytic kinase (JH1) domain; assay type: biochemical; conditions: recombinant JH1 domain 0.3 nM, 4 μM ATP, JAK3-974 peptide, mean, read-out: JAK3 biochem IC50 (nM) Mean
Sequence (P52333 822-1111): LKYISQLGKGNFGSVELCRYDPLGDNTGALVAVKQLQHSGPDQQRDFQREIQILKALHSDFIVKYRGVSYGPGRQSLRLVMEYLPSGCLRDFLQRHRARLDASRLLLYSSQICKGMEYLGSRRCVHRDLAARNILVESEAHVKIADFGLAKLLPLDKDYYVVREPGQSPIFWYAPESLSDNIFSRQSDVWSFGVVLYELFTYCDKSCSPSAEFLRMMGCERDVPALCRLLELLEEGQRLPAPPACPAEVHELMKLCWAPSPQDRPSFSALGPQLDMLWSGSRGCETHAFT
Criterion: IC50 strictly under 5000 nM. Met: TRUE. Not met: FALSE.

For orientation, consider the following solved cases.
Exercise: Please let me know if Cc1cnc(-c2cc3c(N4CC5CCC(C4)N5C(=O)[C@@H]4C[C@H]4F)ccnn3c2)cn1 shows IC50 below 5000 nM.
Solution: FALSE

Exercise: Item: O=C(C1CC1)N1C2CCC1CN(c1ccnc3[nH]c(-c4cnn(C(F)F)c4)cc13)C2
Solution: TRUE

Exercise: Item: Cn1cc(-c2cc3c(N4CC5CCC(C4)N5C(=O)[C@H]4C[C@H]4F)ncnn3c2)cn1 (single isomer, unassigned) [Example 79]
Solution: FALSE

Continuing:
Exercise: Please let me know if O=C(C1CC1)N1C2CCC1CN(c1ncnn3cc(-c4cnn(C(F)(F)F)c4)cc13)C2 shows IC50 below 5000 nM.
Solution: FALSE

Exercise: Item: O=C([C@@H]1C[C@H]1F)N1C2CCC1CN(c1ccnn3cc([C@H]4CC4(F)F)cc13)C2 (single isomer, unassigned)
Solution: FALSE
